Attribution: patent US12492173B2

Test system: Matricaria inodora
Experiment: Post-emergence herbicidal action, MATIN
Format: in vivo
Set-up: key: % herbicidal action vs untreated; 100 = plants died, 0 = like control
Conditions: post-emergence, dosage 80 g/ha
reported.endpoint: herbicidal action MATIN
Give your result as the value with the unit written after it.

compound=CCn1nnnc1NC(=O)c1ccc(C(F)(F)F)c(CS(=O)(=O)CC)c1Br measurement=100%
compound="CCCn1nnnc1NC(=O)c1ccc(C(F)(F)F)c(C[S+](C)[O-])c1Cl (stereo not drawn)" measurement=100%
compound=CCSCc1c(C(F)F)ccc(C(=O)Nc2nnnn2CC)c1Cl measurement=90%

Consider the following items and state reported herbicidal action MATIN for each.
1. Cn1nnnc1NC(=O)c1ccc(C(F)F)c(CS(C)(=O)=O)c1Cl
2. Cn1nnnc1NC(=O)c1ccc(C(F)(F)F)c(CSCC2CC2)c1Cl

[out]
["80%", "100%"]

Consider the following items and state reported herbicidal action MATIN for each.
1. COCCSCc1c(C(F)(F)F)ccc(C(=O)Nc2nnnn2C)c1Cl
2. Cn1nnnc1NC(=O)c1ccc(C(F)(F)F)c(CS(C)(=O)=O)c1Cl
3. Cn1nnnc1NC(=O)c1ccc(I)c(C[S+](C)[O-])c1Cl (racemic)
4. CCSCc1c(C(F)F)ccc(C(=O)Nc2nnnn2C)c1Cl
5. Cn1nnnc1NC(=O)c1ccc(C(F)(F)F)c(C[S+]([O-])CC(F)(F)F)c1Cl (racemic)
6. CCSCc1c(C(F)(F)F)ccc(C(=O)Nc2nnnn2CC)c1C
7. CCn1nnnc1NC(=O)c1ccc(C(F)(F)F)c(C[S+](C)[O-])c1Cl (stereo not drawn)
8. CCCn1nnnc1NC(=O)c1ccc(C(F)(F)F)c(C[S+](C)[O-])c1Br (stereo not drawn)

[out]
["100%", "100%", "100%", "100%", "100%", "100%", "100%", "90%"]

Consider the following items and state reported herbicidal action MATIN for each.
1. Cn1nnnc1NC(=O)c1ccc(C(F)(F)F)c(CS(=O)(=O)C2CC2)c1Cl
2. CCS(=O)(=O)Cc1c(C(F)(F)F)ccc(C(=O)Nc2nnnn2C)c1Br
3. Cc1c(C(=O)Nc2nnnn2C)ccc(C(F)(F)F)c1C[S+](C)[O-] (stereo not drawn)
4. CCn1nnnc1NC(=O)c1ccc(C(F)(F)F)c(CSCCOC)c1Cl
5. CSCc1c(Cl)ccc(C(=O)Nc2nnnn2C)c1Cl
6. CC[S+]([O-])Cc1c(C(F)(F)F)ccc(C(=O)Nc2nnnn2C)c1Cl (racemic)
7. CCn1nnnc1NC(=O)c1ccc(C(F)(F)F)c(CSC)c1SC

[out]
1. 90%
2. 90%
3. 100%
4. 100%
5. 100%
6. 100%
7. 100%
